Test system: A549 NSCLC
Experiment: NCI tumour cell line growth inhibition, 48 h
Recorded Endpoint: TGI

Worked examples, 3 molecules total:
INSERT INTO results (molecule, result) VALUES
  ('COC(C(=O)[C@@H](O)[C@@H](C)O)[C@@H]1Cc2cc3cc(O[C@H]4C[C@@H](O[C@H]5C[C@@H](O)[C@H](O)C(C)O5)[C@H](O)C(C)O4)c(C)c(O)c3c(O)c2C(=O)[C@H]1O[C@H]1C[C@@H](O[C@H]2C[C@@H](O[C@H]3C[C@@H](O)[C@H](OC)C(C)O3)[C@@H](O)C(C)O2)[C@H](O)C(C)O1 (some centres not stated)', '> 33.3 µM'),
  ('COC(=O)c1cc(C)ccc1CC(Cc1ccc(C)cc1)C(=O)OC (configuration not stated)', '> 100 µM'),
  ('COc1ccc2c3c(Nc4ccc(/C(C)=N/O)cc4)[nH]c4ccccc4c-3c(N=O)c2c1', '6.08 µM');

Which TGI is reported for this molecule? "CO/N=C(/C)c1cccc(Nc2cc(-c3ccccc3)nc3ccc(OC)cc23)c1"
53.9 µM

Same lookup for "COC(=O)C1(Cc2ccc3c(c2)CCC3)Cc2cc3c(cc2C1)CCC3" , please.
> 100 µM

What would you report for "Cc1ccc(S(=O)(=O)NC(=O)NC2=NC(C)(C)N(c3ccc(Cl)c(Cl)c3)C(N)=N2)cc1" ?
> 100 µM

Repeat for the following molecule: "COc1cc(C2C(C(=O)Nc3cc(F)c(F)cc3F)=C(C)NC(C)=C2C(=O)Nc2cc(F)c(F)cc2F)ccc1O"
95.8 µM

Again, but for "COC(=O)CCC1=C(CC(=O)OC)C(C)=N/C1=C\c1[nH]c(-c2ccc[nH]2)cc1OC"
13 µM

Can you check "COc1ccc(/C=N/N2C(=O)c3c(N)c(C#N)c(-c4ccccc4)c(-c4ccccc4)c3C2=O)cc1" next?
> 100 µM

Param item: "Cc1ccc(-c2c(C#N)c(-c3ccc([N+](=O)[O-])cc3)c(C#N)c(=O)n2NS(=O)(=O)c2ccccc2)cc1"
> 100 µM

Follow-up item: O=C(O)c1ccc2c(c1)CC1(C2)Cc2cc3c(cc2C1=O)CCC3 (configuration not stated)
> 100 µM

---

// TGI lookup, one value per entry
Tested on: 786-0 renal
Assay: NCI tumour cell line growth inhibition, 48 h

What TGI appears in the records for this compound with 786-0 renal? "CCCCN(CCCC)C(=C(C(Cl)=C(Cl)Cl)[N+](=O)[O-])N(CCCC)CCCC"
> 100 µM

Ok, now "O=c1n(Cc2ccccc2)c(=O)n2c(=O)n(Cc3ccccc3)c(=O)n12"
> 100 µM

For "O=C(N/N=C/c1c(Cl)cccc1Cl)c1ccc(C(F)(F)F)nc1Nc1cccc(C(F)(F)F)c1" then?
3.25 µM

Similarly, "O=C(CNCc1ccccc1)Oc1c(Cl)c(Cl)c(Cl)c(Cl)c1Cl" ?
> 100 µM

Same lookup for "O=C1CCc2ccc3c(c21)CC1(Cc2ccccc2C1)C3" , please.
48.1 µM

---

Tested on: MDA-MB-435
Assay: NCI tumour cell line growth inhibition, 48 h
Recorded Endpoint: TGI (µM)
Answer in µM, number only, no unit symbol.

INSERT INTO assay_data (structure_smiles, measurement_unit, number) VALUES
  ('CC[C@@]1(O)C(=O)OCc2c1cc1n(c2=O)Cc2c-1nc1cc(F)c(C)c3c1c2[C@@H](N)CC3', 'µM', 1.48);

GET /values?readout=TGI&item= "O=C1CSC(c2ccc(-c3nc4ccccc4s3)cc2)=N1"
24.8

Another compound: "COc1ccc2c3c(Nc4ccc(/C(C)=N/O)cc4)[nH]c4ccccc4c-3c(N=O)c2c1"
11.9

Okay, and "C[C@]12CC[C@@H]3c4ccc(O)c([N+](=O)[O-])c4CC[C@H]3[C@@H]1CC[C@@H]2NS(=O)(=O)c1cccc(Br)c1" ?
2.98

---

Tested on: M14 melanoma
Test: NCI tumour cell line growth inhibition, 48 h
Recorded Endpoint: TGI

The following compounds have reported results that may help.
INSERT INTO results (compound, recorded_endpoint, result) VALUES
  ('COC(=O)c1cccc2cccc(C(=O)Nc3ccc(Cl)cc3)c12', 'TGI', '> 100 µM'),
  ('CC1C(c2ccc3c(c2)OCO3)c2cc3c(cc2OC1N1CCOCC1)OCO3 (configuration not stated)', 'TGI', '76.9 µM'),
  ('C/C(CCn1[nH]c(=O)ccc1=O)=N\OCCCc1ccccc1', 'TGI', '> 100 µM'),
  ('COc1ccc(N=NC(=Nc2ccc(F)cc2)c2ccc(N(CCC#N)CCC#N)cc2)cc1', 'TGI', '> 100 µM'),
  ('COC(C(=O)[C@@H](O)[C@@H](C)O)[C@@H]1Cc2cc3cc(O[C@H]4C[C@@H](O[C@H]5C[C@@H](O)[C@H](O)C(C)O5)[C@H](O)C(C)O4)c(C)c(O)c3c(O)c2C(=O)[C@H]1O[C@H]1C[C@@H](O[C@H]2C[C@@H](O[C@H]3C[C@@H](O)[C@H](OC)C(C)O3)[C@@H](O)C(C)O2)[C@H](O)C(C)O1 (some centres not stated)', 'TGI', '0.349 µM');

Find TGI (M14 melanoma) for the entry "NS(=O)(=O)c1ccc(NC(NC(=O)C(C(F)(F)F)C(F)(F)F)(C(F)(F)F)C(F)(F)F)cc1"
> 100 µM

What do you get for "O=C(NCc1ccc(S(=O)(=O)c2cc(F)cc(F)c2)cc1)c1ccc2nccn2c1" ?
> 100 µM

---

Tested on: HCC-2998 colon
Test: NCI tumour cell line growth inhibition, 48 h
Recorded Endpoint: GI50

Item CCOc1ccccc1NC(=O)C(C#N)C1=C(Cl)C(=O)c2ccccc2C1=O (stereo not drawn) has what recorded GI50?
12.3 µM

Same question for COc1ccc2c(c1)C(C)Cc1c(ncnc1-n1cnc3cc(C)ccc31)N2C (stereo not drawn) please.
0.329 µM

Please do the same for "O=C(NO)c1ccc(CN(c2cnccn2)c2cnccn2)cc1" as well.
13.2 µM

---

TGI for assorted compounds
Tested on: SW-620 colon
Assay: NCI tumour cell line growth inhibition, 48 h

INSERT INTO results (compound, result) VALUES
  ('O=C(OCc1ccccc1)C(Cc1ccccc1)N(Cc1ccccc1)Cc1ccccc1 (stereo not given)', '> 100 µM'),
  ('COC(=O)c1cc(/C=C/c2ccc(S(N)(=O)=O)cc2)ccc1O', '> 100 µM'),
  ('CC(=O)OCCOCNC(=S)N/N=C/c1ccc(Br)s1', '> 100 µM'),
  ('COc1ccc(N=Nc2c3c(c(O)c4ccccc24)CCC(C)(C)O3)cc1', '> 100 µM'),
  ('Cc1nn(C(=O)c2ccc(Cl)cc2)c2c1C(c1ccc(O)cc1)SC(N)=N2 (stereo not given)', '> 10 µM');

Recorded TGI for COc1ccc2c(c1)C(C)Cc1c(ncnc1-n1cnc3cc(C)ccc31)N2C (stereo not given) , please?
16.1 µM

Repeat with COCOc1ccc(C2(O)Oc3cc(OCOC)ccc3C2C)c(O)c1 (stereo not given)
32.4 µM

---

Tested on: SN12C renal
Test: NCI tumour cell line growth inhibition, 48 h
Where a SMILES comes first, the peptide text is derived from it. The star is where a group is joined. Bn = c1ccc(C*)cc1
Listing of recorded TGI by entry.

Check out these entries, answers already filled in.
INSERT INTO assay_data (molecule, result) VALUES
  ('CSC(SC)=C1C(=O)N(c2ccccc2)N=C1C', '97.3 µM'),
  ('COC(=O)C(CC(C)C)NC(=O)C(N)Cc1ccc(OCc2ccccc2)cc1 (stereo not given) (H-Tyr(Bn)-Leu-OMe; configuration not given here)', '> 10 µM'),
  ('O=C(OCc1ccccc1)C(Cc1ccccc1)N(Cc1ccccc1)Cc1ccccc1 (stereo not given)', '> 100 µM'),
  ('C[C@]1(S(=O)(=O)c2ccccc2)C[C@H]2N(Cc3ccccc3)[C@@H]1CCC21OCCO1', '> 100 µM');

Attention now turns to another entry.
Look at this molecule and give its reported TGI. CC(C(=O)n1c2ccccc2c2ccccc21)N(c1ccccc1)c1ccccc1 (stereo not given)
41.4 µM

---

Tested on: HCT-116 colon
Test: NCI tumour cell line growth inhibition, 48 h
Listed compounds paired with reported TGI

See these solved cases before continuing.
INSERT INTO assay_data (compound, result) VALUES
  ('CC1=C(c2cc(C(=O)Nc3ccc(Cl)cc3)nc(=S)[nH]2)Sc2ccccc2N1', '> 100 µM'),
  ('c1ccc(C2=Nn3c(CCCCCCCCc4nnc5n4N=C(c4ccccc4)CS5)nnc3SC2)cc1', '> 100 µM'),
  ('CCCCCCCCCCCCOC1C(C(CC(=O)NCCN2CCCC2)NS(=O)(=O)c2cc(Cl)cc(Cl)c2)OC2OC(C)(C)OC21 (stereo not drawn)', '4.78 µM'),
  ('COc1ccc2c(Oc3ccc(NC(=O)c4c(C)n(CC(C)(C)O)n(-c5ccccc5)c4=O)nc3)ccnc2c1', '> 64.3 µM'),
  ('O=C1CSC(c2ccc(-c3nc4ccccc4s3)cc2)=N1', '> 100 µM'),
  ('O=c1[nH]c(=O)n([C@H]2CCCO2)cc1F', '> 5000 µM'),
  ('CC(C(=O)n1c2ccccc2c2ccccc21)N(c1ccccc1)c1ccccc1 (stereo not drawn)', '32.7 µM'),
  ('CC1C(=O)OC2CC[N+]3([O-])CC=C(COC(=O)C(C)(O)C1(C)O)C23 (stereo not drawn)', '> 100 µM'),
  ('COC(=O)/C(=C\c1ccc(N(CCC#N)CCC#N)cc1)NC(=O)c1cc([N+](=O)[O-])ccc1Cl', '> 100 µM'),
  ('CC1C(c2ccc3c(c2)OCO3)c2cc3c(cc2OC1N1CCOCC1)OCO3 (stereo not drawn)', '47.3 µM');

Give TGI (HCT-116 colon) of the following compound: "COc1cc([C@@H]2c3cc4c(cc3[C@@H](c3c(O)cc(O)c5c3O[C@H](c3ccc(O)c(O)c3)[C@@H](O)C5)[C@H]3COC(=O)[C@H]23)OCO4)cc(OC)c1O"
> 100 µM

Would you kindly repeat that for "COC1=C(Br)C(=O)c2nc(C)ccc2C1=O" ?
21.1 µM

Now give it for "CC1=C[C@@H](C)C[C@]2(C)CC[C@H](O2)[C@]23CC[C@](C(=O)O)(C[C@H](O2)[C@@H]2O[C@@](C)(CC2=O)[C@@H](O)[C@H]2CC[C@@]4(CCC[C@@H](O4)[C@H](C)C(=O)O[C@H]4C[C@H]([C@]5(O)OCC[C@H](C)[C@@H]5O)O[C@H]4C=C1)O2)O3" too.
> 10 µM

Next compound up: "CCOC(=O)/C(=C/c1cccc(C#N)c1)N(CC)CC"
> 100 µM

Please answer likewise for CC1=CC(=O)C(C(O)(C(F)(F)F)C(F)(F)F)C(C)(C)C1 (stereo not drawn)
> 10 µM

Provenance of the data: PubChem BioAssay (NCI)
